experiment: Pharmacokinetic test (serum trastuzumab residual rate); type: in vivo; conditions: female BALB/c mouse, intravenous; 3 days vs 5 minutes after administration
Numbered stars: 1 amine (or outer) side, 2 acyl side, 3 side chain; on linkers, the order of the positions; unused ones are H or OH. Square brackets hold non-standard residues; d marks the D form. Peptide text beside a SMILES is read from it. * marks the point of attachment. Exatecan = CC[C@@]1(O)C(=O)OCc2c1cc1n(c2=O)Cc2c-1nc1cc(F)c(C)c3c1c2[C@@H](N*)CC3; Dolaproine = CO[C@@H]([C@@H]1CCCN1)[C@@H](C)C(=O)O; Hexanoyl(6-maleimido) = O=C1C=CC(=O)N1CCCCCC(=O)*; Propanoyl(3-maleimido) = O=C1C=CC(=O)N1CCC(=O)*; Dil = CC[C@H](C)[C@H](NC)[C@@H](CC(=O)O)OC; PABC = O=C(OCc1ccc(N[*:1])cc1)[*:2]; NHCH2OCH2CO = O=C(COCN[*:1])[*:2]; X1 = C[C@@H](N*)[C@@H](O)c1ccccc1; hSer(lactone) = O=C1OCC[C@@H]1N*; Cit = NC(=O)NCCC[C@H](N)C(=O)O; PEG4 = NCCOCCOCCOCCOCCC(=O)O; NMeV = CN[C@H](C(=O)O)C(C)C
EXPERIMENTAL READOUT: Serum trastuzumab residual rate after 3 days from administration (%)
Numbers only, in %.

As a guide, the following entries are already answered.
- COMPOUND: "C=C1C[C@@H]2CC[C@@]34C[C@H]5O[C@H]6[C@@H](O3)[C@H]3O[C@H](CC[C@@H]3O[C@H]6[C@H]5O4)CC(=O)C[C@@H]3[C@@H](OC)[C@@H](C[C@H](O)CNC(=O)OCc4ccc(NC(=O)[C@H](CCCNC(N)=O)NC(=O)[C@@H](NC(=O)[C@H](CC(=O)N[C@H]5CCOC5=O)NC(=O)[C@H](CCCCN(C)C)NC(=O)CCOCCOCCOCCOCCNC(=O)[C@H](CNC(=O)CCP(=O)(O)O)N5C(=O)C=CC5=O)C(C)C)cc4)O[C@H]3C[C@H]3O[C@@H](CC[C@@H]1O2)C[C@@H](C)C3=C [Example 18]"
  MEASURED NUMBER: 73
- COMPOUND: "CC[C@@]1(O)C(=O)OCc2c1cc1n(c2=O)Cc2c-1nc1cc(F)c(C)c3c1c2[C@@H](NC(=O)COCNC(=O)CNC(=O)[C@H](Cc1ccccc1)NC(=O)CNC(=O)CNC(=O)[C@H](CC(=O)N[C@H]1CCOC1=O)NC(=O)CCCCCN1C(=O)C=CC1=O)CC3 [Example 13] ({Hexanoyl(6-maleimido)}-D(hSer(lactone))GGFG[NHCH2OCH2CO]-Exatecan)"
  MEASURED NUMBER: 25

Hey, quick one: what's Serum trastuzumab residual rate after 3 days from administration (%) for each of these?
1. CC[C@H](C)[C@@H]([C@@H](CC(=O)N1CCC[C@H]1[C@H](OC)[C@@H](C)C(=O)N[C@H](C)[C@@H](O)c1ccccc1)OC)N(C)C(=O)[C@@H](NC(=O)[C@H](C(C)C)N(C)C(=O)OCc1ccc(NC(=O)[C@H](CCCNC(N)=O)NC(=O)[C@@H](NC(=O)[C@H](CC(=O)N[C@H]2CCOC2=O)NC(=O)CCOCCOCCOCCOCCNC(=O)CCN2C(=O)C=CC2=O)C(C)C)cc1)C(C)C [Example 1] ({Propanoyl(3-maleimido)-PEG4}-D(hSer(lactone))V[Cit][PABC][NMeV]V[Dil][Dolaproine]-X1)
2. C=C1C[C@@H]2CC[C@@]34C[C@H]5O[C@H]6[C@@H](O3)[C@H]3O[C@H](CC[C@@H]3O[C@H]6[C@H]5O4)CC(=O)C[C@@H]3[C@@H](OC)[C@@H](C[C@H](O)CNC(=O)OCc4ccc(NC(=O)[C@H](CCCNC(N)=O)NC(=O)[C@@H](NC(=O)[C@H](CC(=O)N[C@H]5CCOC5=O)NC(=O)CN(C)CCNC(=O)CCOCCOCCOCCOCCNC(=O)[C@H](CNC(=O)CCP(=O)(O)O)N5C(=O)C=CC5=O)C(C)C)cc4)O[C@H]3C[C@H]3O[C@@H](CC[C@@H]1O2)C[C@@H](C)C3=C [Example 16]

Result:
1. 35
2. 64
